- assay.system: recombinant human CYP11B2 (Homo sapiens, UniProt P19099)
- Construct: made in house; host or cells: V79-4 cells (enzyme enriched microsomal fraction of cell lysates)
- Sequence (P19099 25-503): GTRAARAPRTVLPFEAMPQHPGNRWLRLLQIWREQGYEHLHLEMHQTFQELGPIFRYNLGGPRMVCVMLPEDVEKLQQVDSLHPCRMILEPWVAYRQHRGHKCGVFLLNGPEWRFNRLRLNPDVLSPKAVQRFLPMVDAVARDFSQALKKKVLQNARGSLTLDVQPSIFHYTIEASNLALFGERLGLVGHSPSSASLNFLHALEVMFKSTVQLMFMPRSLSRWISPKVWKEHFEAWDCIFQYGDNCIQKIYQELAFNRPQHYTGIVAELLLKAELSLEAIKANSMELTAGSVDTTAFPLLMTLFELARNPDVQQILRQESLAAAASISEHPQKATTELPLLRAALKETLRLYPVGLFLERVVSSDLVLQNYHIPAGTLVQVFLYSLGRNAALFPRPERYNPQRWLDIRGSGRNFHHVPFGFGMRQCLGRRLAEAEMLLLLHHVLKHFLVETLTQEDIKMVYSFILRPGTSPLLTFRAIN
- assay.text: CYP11B2 enzyme assay, enzyme enriched microsomes from V79-4 cells, aldosterone by LC-MS
- Assay type: biochemical
- stated.conditions: IC50 ranges; run at Km of 11-deoxycorticosterone; read-out: hCYP11B2 IC50
pIC50: −log10 of the molar value.
test.readout: pIC50

Solved entries (count: 4):
In [3]: df
Out[3]:
                              given_smiles                              assay_system  test_readout   measurement
0    Cc1ncncc1-c1nc2ccc(C#N)cc2n1CC(F)(F)F  recombinant human CYP11B2 (Homo sapiens, UniProt P19099)         pIC50  6.00 to 7.00
1     FC(F)c1ncncc1-c1nc2ccc(Cl)cc2n1C1CC1  recombinant human CYP11B2 (Homo sapiens, UniProt P19099)         pIC50  7.00 to 9.00
2        Cc1ncncc1-c1nc2ccc(C#N)nc2n1C1CC1  recombinant human CYP11B2 (Homo sapiens, UniProt P19099)         pIC50  7.00 to 9.00
3  N#Cc1ccc2nc(-c3cncnc3C(F)F)n(C3CC3)c2n1  recombinant human CYP11B2 (Homo sapiens, UniProt P19099)         pIC50  7.00 to 9.00

// query Any idea what pIC50 was measured for CC(C)(C)Nc1ncncc1-c1nc2cc(F)c(F)cc2n1C1CC1 ?
// result 7.00 to 9.00
